# Test Summary: Topical administration (eye drops) of formulation #340, rapamycin levels in blood, cornea, retina choroid, sclera and vitreous (Tables 3-6)
# Assay type: in vivo
# Experimental Parameters: rabbit, vitreous, 2 drops (40 μl per drop) on one eye (right eye, OD), formulation #340 topical, Group II (two drops once a day on one eye, one time), OS, day 3, n = 1, read-out: Rapamycin level, vitreous
Measure: concentration at 3 day

• CO[C@H]1C[C@@H]2CC[C@@H](C)[C@@](O)(O2)C(=O)C(=O)N2CCCC[C@H]2C(=O)O[C@H]([C@H](C)C[C@@H]2CC[C@@H](O)[C@H](OC)C2)CC(=O)[C@H](C)/C=C(\C)[C@@H](O)[C@@H](OC)C(=O)[C@H](C)C[C@H](C)/C=C/C=C/C=C/1C [Rapamycin, rapamycin] = 4 ng/mL
